Molecular target: T1, human IL-11Rα (form used in the assay not stated) (human, UniProt Q14626 23-363, limits assumed)
T1 construct: also called hIL-11R; hIL-11Rα
T1 sequence: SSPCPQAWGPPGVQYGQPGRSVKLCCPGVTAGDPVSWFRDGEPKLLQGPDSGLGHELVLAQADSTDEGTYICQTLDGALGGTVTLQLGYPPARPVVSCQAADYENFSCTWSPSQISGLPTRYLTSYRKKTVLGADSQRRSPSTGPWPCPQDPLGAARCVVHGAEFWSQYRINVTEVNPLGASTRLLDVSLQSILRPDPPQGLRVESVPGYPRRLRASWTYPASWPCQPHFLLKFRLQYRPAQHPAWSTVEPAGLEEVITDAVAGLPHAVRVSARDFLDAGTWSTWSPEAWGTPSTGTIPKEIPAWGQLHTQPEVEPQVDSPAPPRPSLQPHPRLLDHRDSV
Experiment: Biacore, pH 8.5, 37°C

[
  {
    "binder": "hu8E2-TS-311 (antibody, V domains shown) VH: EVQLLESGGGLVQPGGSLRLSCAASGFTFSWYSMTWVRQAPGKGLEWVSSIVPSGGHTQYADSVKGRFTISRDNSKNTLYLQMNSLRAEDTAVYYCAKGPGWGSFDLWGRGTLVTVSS VL: DIQMTQSPSSLSASVGDRVTITCQASQDVSQYIEWYQQKPGKAPKLLIYDASNLQTGVPSRFSGSGSGTDFTFTISSLQPEDIATYYCQQYDNLSPTFGPGTKVDIK",
    "Kd [nM]": 1.69
  },
  {
    "binder": "hu8E2-TS-310 (antibody, V domains shown) VH: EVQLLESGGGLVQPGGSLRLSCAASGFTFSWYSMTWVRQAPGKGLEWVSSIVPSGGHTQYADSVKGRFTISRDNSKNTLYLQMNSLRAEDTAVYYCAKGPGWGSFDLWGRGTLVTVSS VL: DIQMTQSPSSLSASVGDRVTITCQASQDVAMYIEWYQQKPGKAPKLLIYDASNLQTGVPSRFSGSGSGTDFTFTISSLQPEDIATYYCQQYDNLSPTFGPGTKVDIK",
    "Kd [nM]": 2.09
  },
  {
    "binder": "hu8E2-TS-58 (antibody, V domains shown) VH: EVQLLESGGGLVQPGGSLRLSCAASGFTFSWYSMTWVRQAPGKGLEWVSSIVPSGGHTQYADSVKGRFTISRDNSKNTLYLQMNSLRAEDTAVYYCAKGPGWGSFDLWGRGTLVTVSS VL: DIQMTQSPSSLSASVGDRVTITCQASQDINNYLNWYQQKPGKAPKLLIYDASNLQTGVPSRFSGSGSGTDFTFTISSLQPEDIATYYCQQYETQQPFFGPGTKVDIK",
    "Kd [nM]": 0.957
  },
  {
    "binder": "hu8E2-TS-20 (antibody, V domains shown) VH: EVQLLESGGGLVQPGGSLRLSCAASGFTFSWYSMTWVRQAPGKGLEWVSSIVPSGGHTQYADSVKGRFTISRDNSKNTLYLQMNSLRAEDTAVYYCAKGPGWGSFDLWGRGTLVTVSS VL: DIQMTQSPSSLSASVGDRVTITCQASQDINNYLNWYQQKPGKAPKLLIYDASNLQTGVPSRFSGSGSGTDFTFTISSLQPEDIATYYCQQNESQSPTFGPGTKVDIK",
    "Kd [nM]": 0.284
  },
  {
    "binder": "hu8E2-TS-307 (antibody, V domains shown) VH: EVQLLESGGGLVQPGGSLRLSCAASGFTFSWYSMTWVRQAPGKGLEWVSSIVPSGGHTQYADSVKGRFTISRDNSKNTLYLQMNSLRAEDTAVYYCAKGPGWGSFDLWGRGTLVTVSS VL: DIQMTQSPSSLSASVGDRVTITCQASQDVSMYVEWYQQKPGKAPKLLIYDASNLQTGVPSRFSGSGSGTDFTFTISSLQPEDIATYYCQQYDNLSPTFGPGTKVDIK",
    "Kd [nM]": 1.32
  }
]
